Reference for the values: patent US10017481B2

# assayOverview: Metabolic stability assay, human liver microsomes
# Format: in vitro ADME
# conditions: both sexes, liver microsomes; human microsomes, 10 μM, 1 mg/ml protein, 37° C.; read-out: Metabolic Stability T ½ [min] hum
Assignment: determine reported half-life at 10 μM for the given molecules.
Give bare numbers, in min.

{"columns": ["lineNotation", "uom", "half-life at 10 μM"],
 "data": [
  ["C[C@H]1COc2cccc(c2)-c2cccc(c2)C(=O)N(C)[C@H](C(=O)NCc2cn(C)cn2)CCC(=O)N1", "min", 56]
]}

From here, focus on the item given below.
What value of half-life at 10 μM has been recorded for this entry: "C[C@H]1COc2cccc(c2)-c2cccc(c2)C(=O)N(C)[C@H](C(=O)NCCc2ccccc2)CCC(=O)N1"
2
